Attribute: pEC50
# Test system: mouse TGR5 receptor (Mus musculus, UniProt Q80SS6)
# Construct: expressed in transfected cells; host or cells: HEK293-EBNA (293 c18, ATCC CRL10852), Hygromycin B selection
# Sequence (Q80SS6 1-329): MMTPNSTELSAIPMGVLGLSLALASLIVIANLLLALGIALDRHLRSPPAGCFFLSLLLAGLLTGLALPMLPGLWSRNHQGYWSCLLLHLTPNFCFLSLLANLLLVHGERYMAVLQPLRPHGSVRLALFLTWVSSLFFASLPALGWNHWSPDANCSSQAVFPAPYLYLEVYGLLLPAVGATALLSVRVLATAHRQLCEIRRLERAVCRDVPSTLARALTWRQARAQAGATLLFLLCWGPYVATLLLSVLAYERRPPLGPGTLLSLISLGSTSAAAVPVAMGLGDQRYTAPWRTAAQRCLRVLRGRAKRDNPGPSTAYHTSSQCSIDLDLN
# Experiment description: Mouse TGR5 cAMP production assay (HTRF, Cisbio cAMP HiRange)
# Assay type: cell-based
# Assay conditions: HEK293-EBNA cells overexpressing mouse TGR5, HTRF cAMP HiRange; coded A-D
pEC50: −log10 of the molar value.

Some solved entries appear below for comparison.
| Compound | Test system | pEC50 |
| --- | --- | --- |
| Cc1cnccc1-c1cccc(C(C)N(CCCC(=O)NCCSO)S(=O)(=O)c2cccc(C(F)(F)F)c2)c1 (stereo not shown) [Compound 20BD] | mouse TGR5 receptor (Mus musculus, UniProt Q80SS6) | 6.00 to 7.00 |
| Cc1cnccc1-c1cccc([C@H](C)N(CCCCC(=O)NCCOCCN)S(=O)(=O)c2cccc(Cl)c2C)c1 [Compound 20AT] | mouse TGR5 receptor (Mus musculus, UniProt Q80SS6) | 6.00 to 7.00 |
| Cc1cnccc1-c1cccc([C@H](C)N(CCCC(=O)NCCS(=O)(=O)NCC(=O)O)S(=O)(=O)c2ccccc2C)c1 [Compound 20AX] | mouse TGR5 receptor (Mus musculus, UniProt Q80SS6) | 6.00 to 7.00 |

Query compound follows.
Please report the recorded pEC50 for CCc1cnccc1-c1cccc([C@H](C)N(CCCCN)S(=O)(=O)c2cccc(Cl)c2C)c1 [Compound 24AC] . > 7.00

###

# Test system: mouse TGR5 receptor (Mus musculus)
# Construct: expressed in transfected cells; host or cells: HEK293-EBNA (293 c18, ATCC CRL10852), Hygromycin B selection
# Experiment description: Mouse TGR5 cAMP production assay (HTRF, Cisbio cAMP HiRange)
# Type: cell-based
# Assay conditions: HEK293-EBNA cells overexpressing mouse TGR5, HTRF cAMP HiRange; coded A-D
pEC50: −log10 of the molar value.
// pEC50 lookup, one value per entry

Guide cases for pEC50, answers given:
| Compound | pEC50 |
| --- | --- |
| Cc1cnccc1-c1cccc([C@H](C)N(CCCCC(=O)NCCOCCNC(=O)NCCS(=O)(=O)O)S(=O)(=O)c2cccc(Cl)c2C)c1 [Compound 28AF] | 6.00 to 7.00 |
| CCc1cnccc1-c1cccc([C@H](C)N(CCCC(=O)NCCN)S(=O)(=O)c2cccc(Cl)c2C)c1 [Compound 21AS] | 6.00 to 7.00 |

Consider the compound shown here: COCCN(C(C)(C)c1cccc(-c2ccncc2C)c1)S(=O)(=O)c1ccccc1C(F)(F)F [Compound 13AA] What is its recorded pEC50? 6.00 to 7.00

Query (compound): Cc1cncnc1-c1cccc(C(C)(C)NS(=O)(=O)c2ccccc2C(F)(F)F)c1 ; field requested: pEC50 4.52 to 6.00

Item Cc1cnccc1-c1cccc(C(C)(C)N(CCCC(=O)N[C@@H](C)C(=O)O)S(=O)(=O)c2cccc(Cl)c2C)c1 [Compound 21AF] has what recorded pEC50? > 7.00

Need pEC50 of Cc1cnccc1-c1cccc([C@H](C)N(CCCC(=O)NCCC(=O)O)S(=O)(=O)c2cccc(Cl)c2C)c1 [Compound 21AH] , thanks. 6.00 to 7.00

pEC50 for CCc1cnccc1-c1cccc([C@H](C)N(CCCCC(=O)NCCS(=O)(=O)O)S(=O)(=O)c2cccc(Cl)c2C)c1 [Compound 20AS] ? > 7.00

Record request: pEC50 value, item Cc1cnccc1-c1cccc([C@H](C)NS(=O)(=O)c2cccc(Cl)c2C)c1 > 7.00

So what does the record say about pEC50 for Cc1cnccc1-c1cccc(C(C)(C)N(CCCC(=O)NCCS(N)(=O)=O)S(=O)(=O)c2cccc(Cl)c2C)c1 [Compound 20AE] ? > 7.00

Returns the measured pEC50 for the input compound. Input: CC(C)(NS(=O)(=O)c1ccccc1C(F)(F)F)c1cccc(-c2cnc3nccn3c2)c1 4.52 to 6.00

I am curious: what pEC50 value has been reported for Cc1cc2nccn2cc1-c1cccc(C(C)(C)NS(=O)(=O)c2ccccc2C(F)(F)F)c1 ? 4.52 to 6.00

// pEC50 lookup, key: Cc1cnccc1-c1cccc([C@H](C)N(CCCC(=O)NCCN)S(=O)(=O)c2ccccc2C(F)(F)F)c1 [Compound 20BX] 6.00 to 7.00

###

# Test system: human TGR5 receptor (Homo sapiens, UniProt Q8TDU6)
# Sequence (Q8TDU6 1-330): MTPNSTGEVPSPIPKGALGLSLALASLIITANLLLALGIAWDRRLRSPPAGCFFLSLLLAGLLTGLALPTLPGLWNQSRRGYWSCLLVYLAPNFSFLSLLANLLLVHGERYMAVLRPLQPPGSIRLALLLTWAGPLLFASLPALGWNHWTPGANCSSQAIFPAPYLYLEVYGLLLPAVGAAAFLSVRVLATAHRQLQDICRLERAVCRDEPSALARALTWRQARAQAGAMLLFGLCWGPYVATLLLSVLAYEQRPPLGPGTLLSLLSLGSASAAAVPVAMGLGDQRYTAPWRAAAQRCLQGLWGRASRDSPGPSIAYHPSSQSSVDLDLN
# Experiment description: Human TGR5 cAMP production assay
# Assay conditions: human TGR5, luminescent cAMP assay; coded A-D; read-out: Human TGR5 Lum. cAMP Activity (EC50)
# Description: Human TGR5 cAMP Production Assay We evaluated the Compounds of the present invention for their ability to induce cAMP production using CHO-K1 cells overexpressing the human TGR5 receptor. […] Test compounds were serially diluted (half-log dilutions) in DMSO and then further diluted 1:50 in PBS, 10 mM HEPES buffer. […] Luminescent signal was then detected using the Viewlux instrument (Perkin-Elmer, Waltham, Mass.). […]
pEC50: −log10 of the molar value.
Property name: pEC50

| Compound | Test system | Reading |
| --- | --- | --- |
| Cc1nccc(-c2cccc(C(C)(C)NS(=O)(=O)c3cccc(C(F)(F)F)c3)c2)c1C [Compound 5AC] | human TGR5 receptor (Homo sapiens, UniProt Q8TDU6) | 4.52 to 6.00 |

Returns the measured pEC50 for the input compound. Input: Cc1cnccc1-c1cccc(C(C)(C)N(CCCNC(=O)CS(=O)(=O)O)S(=O)(=O)c2cccc(Cl)c2C)c1 [Compound 31AB] > 7.00

What pEC50 value was documented for this compound, Cc1cnccc1-c1cccc([C@H](C)N(CCCCNC(=O)[C@@H](N)CS(=O)(=O)O)S(=O)(=O)c2ccccc2C(F)(F)F)c1 [Compound 31AC] ? > 7.00

###

# Test system: mouse TGR5 receptor (Mus musculus)
# Construct: expressed in transfected cells; host or cells: HEK293-EBNA (293 c18, ATCC CRL10852), Hygromycin B selection
# Experiment description: Mouse TGR5 cAMP production assay (HTRF, Cisbio cAMP HiRange)
# Assay type: cell-based
# Assay conditions: HEK293-EBNA cells overexpressing mouse TGR5, HTRF cAMP HiRange; coded A-D
pEC50: −log10 of the molar value.
Property name: pEC50

Answered examples (3):
| Compound | Test system | pEC50 |
| --- | --- | --- |
| Cc1cnccc1-c1cccc(C2CN(CCCC(=O)O)CCN2S(=O)(=O)c2cccc(Cl)c2C)c1 (stereo not shown) [Compound 52] | mouse TGR5 receptor (Mus musculus) | 6.00 to 7.00 |
| CC(C)(NS(=O)(=O)c1cccc(C(F)(F)F)c1)c1cccc(-c2ccncc2N)c1 [Compound 1AM] | mouse TGR5 receptor (Mus musculus) | 6.00 to 7.00 |
| COc1cnccc1-c1cccc(C(C)(C)NS(=O)(=O)c2ccc(Cl)cc2C(F)(F)F)c1 [Compound 2BF] | mouse TGR5 receptor (Mus musculus) | 6.00 to 7.00 |

Attention now shifts to the item below.
Form field - read-out: pEC50; system: mouse TGR5 receptor (Mus musculus); submitted item: CCc1cnccc1-c1cccc(C(C)(C)NS(=O)(=O)c2cccc(Cl)c2C)c1 [Compound 2BY] > 7.00

###

# Test system: mouse TGR5 receptor (Mus musculus)
# Construct: expressed in transfected cells; host or cells: HEK293-EBNA (293 c18, ATCC CRL10852), Hygromycin B selection
# Sequence (Q80SS6 1-329): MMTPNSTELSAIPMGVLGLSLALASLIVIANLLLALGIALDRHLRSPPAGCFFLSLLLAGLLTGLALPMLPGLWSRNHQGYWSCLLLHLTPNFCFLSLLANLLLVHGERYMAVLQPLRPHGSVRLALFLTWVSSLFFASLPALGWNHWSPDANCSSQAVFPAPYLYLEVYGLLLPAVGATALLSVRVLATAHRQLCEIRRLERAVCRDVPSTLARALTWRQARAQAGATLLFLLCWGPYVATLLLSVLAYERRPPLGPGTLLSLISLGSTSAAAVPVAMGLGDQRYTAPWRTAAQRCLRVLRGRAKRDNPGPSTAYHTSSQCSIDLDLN
# Experiment description: Mouse TGR5 cAMP production assay (HTRF, Cisbio cAMP HiRange)
# Format: cell-based
# Assay conditions: HEK293-EBNA cells overexpressing mouse TGR5, HTRF cAMP HiRange; coded A-D
Property name: EC50

| Compound | Test system | Reading |
| --- | --- | --- |
| Cc1c(Cl)cccc1S(=O)(=O)N(CCCC(=O)O)C(C)(C)c1cccc(-c2ccncc2CO)c1 [Compound 16AC] | mouse TGR5 receptor (Mus musculus) | 100 to 999 nM |
| Cc1cnccc1-c1cccc([C@H](C)N(CCCC(=O)NCCNC(=O)CS(=O)(=O)O)S(=O)(=O)c2ccccc2C(F)(F)F)c1 [Compound 31AE] | mouse TGR5 receptor (Mus musculus) | 100 to 999 nM |
| Cc1c(Cl)cccc1S(=O)(=O)N(CCCC(=O)NCCS(=O)(=O)O)[C@@H](C)c1cccc(-c2ccnnc2)c1 [Compound 20BO] | mouse TGR5 receptor (Mus musculus) | > 30000 nM |
| COc1cnccc1-c1cccc(C(CO)NS(=O)(=O)c2cccc(C(F)(F)F)c2)c1 (racemic) | mouse TGR5 receptor (Mus musculus) | 1000 to 30000 nM |
| Cc1cnccc1-c1cccc(C(C)N(CCCNc2c(NCCC(=O)O)c(=O)c2=O)S(=O)(=O)c2cccc(Cl)c2C)c1 (stereo not shown) [Compound 32AB] | mouse TGR5 receptor (Mus musculus) | 100 to 999 nM |
| Cc1c(Cl)cccc1S(=O)(=O)N(CCCC(=O)NCCS(=O)(=O)O)C(C)(C)c1cccc(-c2ccncc2CO)c1 [Compound 20AO] | mouse TGR5 receptor (Mus musculus) | 100 to 999 nM |

Please look at the following compound next.
Give mouse TGR5 receptor (Mus musculus) EC50 for Cc1cnccc1-c1cccc(C2CN(C(=O)CS(=O)(=O)O)CCN2S(=O)(=O)c2ccccc2C)c1 (stereo not shown) [Compound 49AA] < 100 nM

Every entry's value here was drawn from patent US11236055B2.
